Values compiled from the supplement of paper PMC12494721.

system: Ruminococcus gnavus DSM 108212; assay: growth (OD595) fold change vs plate DMSO controls (fold change (ratio)); higher = more growth; conditions: incubation time: 27 h, anaerobic, 37 °C
Where a name gives a salt, the structure may show the parent alone.
Provide the recorded growth for the entries that follow.
Numbers only.

I have 6 molecules here; please give me growth for each one.
1. CC(=O)N[C@@H](CCC(N)=O)C(=O)O [Acetyl-L-glutamine] (20 µM)
2. CC(C(=O)O)c1ccc(C(=O)c2ccccc2)s1 (stereo not drawn) [Tiaprofenic acid] (20 µM)
3. C1CCC(C(CC2CCCCN2)C2CCCCC2)CC1 (stereo not drawn) [Perhexiline maleate] (20 µM)
4. OCCN1C[C@H](O)[C@@H](O)[C@H](O)[C@H]1CO [Miglitol] (20 µM)
5. NS(=O)(=O)c1cc2c(cc1C(F)(F)F)NC(Cc1ccccc1)NS2(=O)=O (stereo not drawn) [Bendroflumethiazide] (20 µM)
6. CC12CC3CC(C)(C1)CC(N)(C3)C2 [Memantine hydrochloride] (20 µM)

1. 1.12
2. 1.16
3. 0.952
4. 1.05
5. 1.05
6. 0.997

Can you give me growth for all of these, one by one?
1. Cc1onc(-c2ccccc2)c1-c1ccc(S(N)(=O)=O)cc1 [Valdecoxib] (20 µM)
2. O=C(O)c1cc(=O)c2c(OCC(O)COc3cccc4oc(C(=O)O)cc(=O)c34)cccc2o1 [Cromolyn disodium salt] (20 µM)

1. 0.87
2. 1.11
